Listed here: items and their measured EC50.
target: UniProt P40238; assay: Proliferation of TPO dependent BaF/hTPOR cells, WST-1, thrombopoietic activity ED50 (Test Example 3); conditions: 20 h incubation then WST-1 4 h, absorbance at 450 nm
The reply should contain only the number, in nM.

# example entries with known answers
>>> test_value("CC(=Cc1ccc(C(=O)Nc2nc(-c3ccc(Cl)c(Cl)c3)cs2)cc1)c1ncc[nH]1")
276
>>> test_value("CCOC(=O)C(F)Cc1ccc(C(=O)Nc2nc(-c3ccc(Cl)c(Cl)c3)cs2)cc1 (centres unmarked)")
400
>>> test_value("CCCCCc1ccc(-c2csc(NC(=O)c3ccc(/C=C(\\Cl)C(=O)O)cc3)n2)cc1")
116
>>> test_value("CCCCCc1cccc(-c2csc(NC(=O)c3ccc(/C=C(\\Cl)C(=O)O)cc3)n2)c1F")
23

Now for a further molecule.
Q: Which EC50 value belongs to O=C(O)/C(Cl)=C/c1ccc(C(=O)Nc2nc(-c3cccc(F)c3F)cs2)cc1 ?
A: 119

====

Target: UniProtKB P40238
Sequence (P40238 26-635): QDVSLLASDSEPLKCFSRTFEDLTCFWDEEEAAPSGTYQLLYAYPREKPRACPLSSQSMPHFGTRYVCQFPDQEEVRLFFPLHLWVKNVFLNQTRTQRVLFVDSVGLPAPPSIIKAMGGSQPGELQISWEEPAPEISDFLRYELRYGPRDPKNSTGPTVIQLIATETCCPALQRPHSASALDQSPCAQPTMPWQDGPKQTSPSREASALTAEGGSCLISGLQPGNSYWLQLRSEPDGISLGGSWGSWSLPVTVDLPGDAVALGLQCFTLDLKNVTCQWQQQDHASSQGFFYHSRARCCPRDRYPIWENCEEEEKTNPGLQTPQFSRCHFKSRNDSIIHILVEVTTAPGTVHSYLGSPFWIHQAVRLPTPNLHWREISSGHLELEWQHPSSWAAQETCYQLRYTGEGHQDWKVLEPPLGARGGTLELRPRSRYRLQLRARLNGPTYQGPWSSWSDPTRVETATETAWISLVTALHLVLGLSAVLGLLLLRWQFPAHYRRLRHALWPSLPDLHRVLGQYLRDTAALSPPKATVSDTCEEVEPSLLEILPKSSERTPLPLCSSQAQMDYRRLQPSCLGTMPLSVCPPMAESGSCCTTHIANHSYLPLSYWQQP
Experiment: Proliferation of TPO dependent BaF/hTPOR cells, WST-1, thrombopoietic activity ED50 (Test Example 3)
Settings: 20 h incubation then WST-1 4 h, absorbance at 450 nm
pEC50: −log10 of the molar value.
// label = criterion met if pEC50 is not less than 7, otherwise criterion not met

Consider the following illustrative entries.
>>> group("O=C(O)/C(Cl)=C/c1ccc(C(=O)Nc2nc(-c3cc(C(F)(F)F)cc(C(F)(F)F)c3)cs2)cc1")
"criterion met"
>>> group("C/C(=C\\c1ccc(C(=O)Nc2nc(-c3ccc(Cl)c(Cl)c3)cs2)cc1)C(=O)NCc1ccc(F)cc1")
"criterion not met"
>>> group("CC(Cc1ccc(C(=O)Nc2nc(-c3ccc(Cl)c(Cl)c3)cs2)cc1)C(=O)O (stereo not shown)")
"criterion not met"
>>> group("C/C(=C\\c1ccc(C(=O)Nc2nc(-c3ccc(Cl)c(Cl)c3)cs2)cc1)C(=O)NCC(F)(F)F")
"criterion not met"

Q: Determine whether measured pEC50 meets or exceeds 7 for COCCNC(=O)/C(C)=C/c1ccc(C(=O)Nc2nc(-c3ccc(Cl)c(Cl)c3)cs2)cc1
A: criterion not met
